Origin of values: ChEMBL document CHEMBL5104211

- Test system: LoVo
- METHOD NOTES: Anticancer activity against human LoVo cells assessed as inhibition of cell proliferation by MTT assay
- Type: functional, cell-based
Binary label based on IC50 with cut-off 40 µM: below gives T, not below gives F.

SMILES CODE	GROUP LABEL
CC(=O)Oc1ccc(OC(=O)CC[C@@H](C)[C@H]2CC[C@H]3[C@@H]4[C@H](O)C[C@@H]5C[C@H](O)CC[C@]5(C)[C@H]4CC[C@]23C)cc1	F
C[C@H](CCC(=O)OCc1ccc([N+](=O)[O-])cc1)[C@H]1CC[C@H]2[C@@H]3[C@H](O)C[C@@H]4C[C@H](O)CC[C@]4(C)[C@H]3CC[C@]12C	T
COC(=O)c1ccc(COC(=O)CC[C@@H](C)[C@H]2CC[C@H]3[C@@H]4[C@H](O)C[C@@H]5C[C@H](O)CC[C@]5(C)[C@H]4C[C@H](O)[C@]23C)cc1	T
CC(=O)Nc1ccc(OC(=O)CC[C@@H](C)[C@H]2CC[C@H]3[C@@H]4[C@H](O)C[C@@H]5C[C@H](O)CC[C@]5(C)[C@H]4C[C@H](O)[C@]23C)cc1	F
C[C@H](CCC(=O)OCc1cccc(O)c1)[C@H]1CC[C@H]2[C@@H]3[C@@H](O)C[C@@H]4C[C@@H](O)CC[C@]4(C)[C@H]3CC[C@]12C	F

----------
- Test system: LoVo
- METHOD NOTES: Anticancer activity against human LoVo cells assessed as inhibition of cell proliferation by MTT assay
- Format: functional, cell-based
PROPERTY: IC50 (µM)

SMILES CODE	PROPERTY	NUMERIC VALUE
C[C@H](CCC(=O)OCc1cc(O)cc(O)c1)[C@H]1CC[C@H]2[C@@H]3[C@H](O)C[C@@H]4C[C@H](O)CC[C@]4(C)[C@H]3CC[C@]12C	IC50	56.7
COC(=O)[C@H](CCSC)NC(=O)CC[C@@H](C)[C@H]1CC[C@H]2[C@@H]3[C@H](O)C[C@@H]4C[C@H](O)CC[C@]4(C)[C@H]3C[C@H](O)[C@]12C	IC50	51.6
COc1cc(COC(=O)CC[C@@H](C)[C@H]2CC[C@H]3[C@@H]4[C@H](O)C[C@@H]5C[C@H](O)CC[C@]5(C)[C@H]4CC[C@]23C)cc(OC)c1	IC50	21.3
COC(=O)[C@H](CCSC)NC(=O)CC[C@@H](C)[C@H]1CC[C@H]2[C@@H]3[C@H](O)C[C@@H]4C[C@H](O)CC[C@]4(C)[C@H]3CC[C@]12C	IC50	22.8

----------
Items are presented alongside their recorded inhibition at 20 µM.
- System: HCT-116
- METHOD NOTES: Inhibition of cell migration in human HCT-116 cells at 20 micromol/L and measured after 24 hrs by crystal violet staining based transwell assay
- Assay type: functional
- STUDY CONDITIONS: HCT-116, 24 h, dose 20 µmol/L

SMILES CODE	inhibition at 20 µM, %
COc1cc(COC(=O)CC[C@@H](C)[C@H]2CC[C@H]3[C@@H]4[C@H](O)C[C@@H]5C[C@H](O)CC[C@]5(C)[C@H]4C[C@H](O)[C@]23C)cc(OC)c1	80
Cc1ccc(COC(=O)CC[C@@H](C)[C@H]2CC[C@H]3[C@@H]4[C@H](O)C[C@@H]5C[C@H](O)CC[C@]5(C)[C@H]4C[C@H](O)[C@]23C)cc1	80
COC(=O)c1ccc(COC(=O)CC[C@@H](C)[C@H]2CC[C@H]3[C@@H]4[C@H](O)C[C@@H]5C[C@H](O)CC[C@]5(C)[C@H]4C[C@H](O)[C@]23C)cc1	80
C[C@H](CCC(=O)OCc1ccc([N+](=O)[O-])cc1)[C@H]1CC[C@H]2[C@@H]3[C@H](O)C[C@@H]4C[C@H](O)CC[C@]4(C)[C@H]3C[C@H](O)[C@]12C	80
COC(=O)c1ccc(COC(=O)CC[C@@H](C)[C@H]2CC[C@H]3[C@@H]4[C@H](O)C[C@@H]5C[C@H](O)CC[C@]5(C)[C@H]4CC[C@]23C)cc1	30

----------
- Tested on: SK-HEP1
- METHOD NOTES: Anticancer activity against human SK-HEP1 cells assessed as inhibition of cell proliferation by MTT assay
- Format: functional, cell-based
pIC50: −log10 of the molar value.

SMILES CODE	pIC50
COC(=O)c1ccc(COC(=O)CC[C@@H](C)[C@H]2CC[C@H]3[C@@H]4[C@H](O)C[C@@H]5C[C@H](O)CC[C@]5(C)[C@H]4CC[C@]23C)cc1	4.30
COc1cc(COC(=O)CC[C@@H](C)[C@H]2CC[C@H]3[C@@H]4[C@H](O)C[C@@H]5C[C@H](O)CC[C@]5(C)[C@H]4C[C@H](O)[C@]23C)cc(OC)c1	4.30
C[C@H](CCC(=O)OCc1cccc(O)c1)[C@H]1CC[C@H]2[C@@H]3[C@H](O)C[C@@H]4C[C@H](O)CC[C@]4(C)[C@H]3CC[C@]12C	4.00
COC(=O)[C@H](CCSC)NC(=O)CC[C@@H](C)[C@H]1CC[C@H]2[C@@H]3[C@H](O)C[C@@H]4C[C@H](O)CC[C@]4(C)[C@H]3C[C@H](O)[C@]12C	3.76
COc1cc(COC(=O)CC[C@@H](C)[C@H]2CC[C@H]3[C@@H]4[C@H](O)C[C@@H]5C[C@H](O)CC[C@]5(C)[C@H]4CC[C@]23C)cc(OC)c1	4.19
O=c1[nH]cc(F)c(=O)[nH]1	4.90
